System: VRE
Experiment: Broth microdilution MIC, Example 7 (NCL812 and analogues)
Format: cell-based, Enterococcus spp.
Conditions: VRE 1; 24 hours; duplicate lines per compound
For each entry below, report its MIC (μg/ml) at 24 hours, VRE 1 value.

stdin: Annotate the compound Cl.N#Cc1ccc(/C=N/NC(=N)N/N=C/c2ccc(Cl)cc2)cc1 with its measured MIC (μg/ml) at 24 hours, VRE 1.
stdout: >128 µg/mL

stdin: Please give the documented MIC (μg/ml) at 24 hours, VRE 1 of Cl.N=C(NN=Cc1ccc(O)cc1)NN=Cc1ccc(O)cc1
stdout: 128 µg/mL

stdin: Indicate the recorded MIC (μg/ml) at 24 hours, VRE 1 value for this compound: Cl.N=C(NN=Cc1cc(Br)co1)NN=Cc1cc(Br)co1
stdout: >128 µg/mL

stdin: Read the entry Cl.N=C(N/N=C/c1ccncc1)N/N=C/c1ccncc1 and write its reported MIC (μg/ml) at 24 hours, VRE 1.
stdout: >128 µg/mL

stdin: Tell me MIC (μg/ml) at 24 hours, VRE 1 reported for Cl.N=C(NN=Cc1ccc(Cl)o1)NN=Cc1ccc(Cl)o1
stdout: >128 µg/mL

stdin: Please report the measured MIC (μg/ml) at 24 hours, VRE 1 for Cl.N=C(N/N=C/c1cc(F)ccc1F)N/N=C/c1cc(F)ccc1F
stdout: >128 µg/mL

stdin: Give MIC (μg/ml) at 24 hours, VRE 1 for Cl.N=C(NN=Cc1ccc(F)c(F)c1)NN=Cc1ccc(F)c(F)c1
stdout: 4 µg/mL

stdin: Please supply the value of reported MIC (μg/ml) at 24 hours, VRE 1 for the item COc1cc(C=NNC(=N)NN=Cc2cc(Br)c(OC)c(OC)c2)cc(Br)c1OC.Cl
stdout: >128 µg/mL

stdin: Please report MIC (μg/ml) at 24 hours, VRE 1 for the following compound: Cl.N=C(NN=Cc1cc(O)c(O)cc1O)NN=Cc1cc(O)c(O)cc1O
stdout: 128 µg/mL

stdin: Kindly indicate its recorded MIC (μg/ml) at 24 hours, VRE 1. Item: Cl.N=C(NN=Cc1ccccc1[N+](=O)[O-])NN=Cc1ccccc1[N+](=O)[O-]
stdout: >128 µg/mL

stdin: Answer with the recorded MIC (μg/ml) at 24 hours, VRE 1 for the compound listed here: Cc1cccc(C=NNC(=N)NN=Cc2cccc(C)c2O)c1O.Cl
stdout: >128 µg/mL

stdin: For the compound Cl.N#Cc1ccccc1C=NNC(=N)NN=Cc1ccc(Cl)cc1 , give its reported MIC (μg/ml) at 24 hours, VRE 1.
stdout: >128 µg/mL

stdin: Note down MIC (μg/ml) at 24 hours, VRE 1 recorded for Clc1ccc(CNc2nnc(-c3ccc(Cl)cc3)[nH]2)cc1
stdout: >128 µg/mL

stdin: Annotate the compound Cl.N=C(NN=Cc1ccc(Br)o1)NN=Cc1ccc(Br)o1 with its measured MIC (μg/ml) at 24 hours, VRE 1.
stdout: >128 µg/mL

stdin: Quick one: give measured MIC (μg/ml) at 24 hours, VRE 1 for Cl.N=C(NN=Cc1ccoc1)NN=Cc1ccoc1
stdout: >128 µg/mL

stdin: Identify measured MIC (μg/ml) at 24 hours, VRE 1 associated with Cl.N=C(NN=Cc1ccccc1-c1ccccc1)NN=Cc1ccccc1-c1ccccc1
stdout: >128 µg/mL

stdin: Read off the recorded MIC (μg/ml) at 24 hours, VRE 1 for Cl.N=C(NN=C1C(=O)Nc2ccccc21)NN=C1C(=O)Nc2ccccc21
stdout: >128 µg/mL

stdin: Give the reported MIC (μg/ml) at 24 hours, VRE 1 for this compound. Cl.N=C(NN=Cc1ccc(Cl)cc1N)NN=Cc1ccc(Cl)cc1N
stdout: 2 µg/mL

stdin: Provide measured MIC (μg/ml) at 24 hours, VRE 1 value, entry: CCO/C(N)=N/N=C(\C)c1ccc(Cl)cc1
stdout: >128 µg/mL

stdin: Tell us which MIC (μg/ml) at 24 hours, VRE 1 value is on record for COc1ccc(C=NNC(=N)NN=Cc2ccc(OC)c(OC)c2)cc1OC.Cl
stdout: >128 µg/mL
